- System: 857933-349-R-J2-PDC complex spheroids, viability
- protocol summary: Anticancer human tumor 857933-349-R-J2-PDC patient-derived colon adenocarcinoma cell line growth inhibition [GQUAD]
- assay conditions: curve of first compound; second compound 0.316 µM
quantity: IC50

Please review the following examples before continuing.
CC1COCCN1c1cc(C2(S(C)(=N)=O)CC2)nc(-c2ccnc3[nH]ccc23)n1 (stereo unspecified) + Cc1[nH]c2ccc(F)cc2c1-c1nc2c3cccnc3c3ncccc3c2[nH]1 : 6090 nM
CCCS(=O)(=O)Nc1ccc(F)c(C(=O)c2c[nH]c3ncc(-c4ccc(Cl)cc4)cc23)c1F + CN(C)c1ccc(Nc2c3ccc(NC(=O)CCN4CCCC4)cc3nc3cc(NC(=O)CCN4CCCC4)ccc23)cc1 : 5650 nM
CCc1c2c(nc3ccc(O)cc13)-c1cc3c(c(=O)n1C2)COC(=O)[C@]3(O)CC + Cc1cnc(CNC(=O)c2c(=O)c3ccc(N4CCCN(C)CC4)nc3n3c2sc2ccccc23)cn1 : < 0.999 nM
Nc1ccn(C2OC(CO)C(O)C2(F)F)c(=O)n1 (stereo unspecified) + CN(C)c1ccc(Nc2c3ccc(NC(=O)CCN4CCCC4)cc3nc3cc(NC(=O)CCN4CCCC4)ccc23)cc1 : 357 nM
CC(=O)O[C@H]1C(=O)[C@@]2(C)[C@H]([C@H](OC(=O)c3ccccc3)[C@]3(O)C[C@H](OC(=O)[C@H](O)[C@@H](NC(=O)c4ccccc4)c4ccccc4)C(C)=C1C3(C)C)[C@]1(OC(C)=O)CO[C@@H]1C[C@@H]2O + Cc1cnc(CNC(=O)c2c(=O)c3ccc(N4CCCN(C)CC4)nc3n3c2sc2ccccc23)cn1 : < 31.6 nM

Continue with the next compound.
I would be grateful if you could share the reported IC50 for CC1COCCN1c1cc(C2(O)CC3CCC(C2)O3)c2cnn(-c3ccn[nH]3)c2n1 (stereo unspecified) + Cc1[nH]c2ccc(F)cc2c1-c1nc2c3cccnc3c3ncccc3c2[nH]1 .
440 nM

* * *

- Test system: 857933-349-R-J2-PDC complex spheroids, viability
- protocol summary: Anticancer human tumor 857933-349-R-J2-PDC cell line growth inhibition [GQUAD]; active means viability on the fitted dose curve at most 10% of control; inactive means the rest;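 further: spheroids exposed to compounds for one week before readout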
- assay conditions: second compound 3.16 µM; first compound 0.1 µM
Allowed answers: active, inactive

O=C(NO)c1cnc(N2CCN(S(=O)(=O)c3ccc4ccccc4c3)CC2)nc1 + CN(C)c1ccc(Nc2c3ccc(NC(=O)CCN4CCCC4)cc3nc3cc(NC(=O)CCN4CCCC4)ccc23)cc1 : inactive

Could you kindly confirm the outcome this assay logged for Nc1ccn(C2OC(CO)C(O)C2(F)F)c(=O)n1 (stereo not given) + CN(C)c1ccc(Nc2c3ccc(NC(=O)CCN4CCCC4)cc3nc3cc(NC(=O)CCN4CCCC4)ccc23)cc1 ?
inactive

What would you report for CCCS(=O)(=O)Nc1ccc(F)c(C(=O)c2c[nH]c3ncc(-c4ccc(Cl)cc4)cc23)c1F + Cc1cnc(CNC(=O)c2c(=O)c3ccc(N4CCCN(C)CC4)nc3n3c2sc2ccccc23)cn1 ?
active

Would you mind doing COc1cccc2c1C(=O)c1c(O)c3c(c(O)c1C2=O)CC(O)(C(=O)CO)CC3OC1CC(N)C(O)C(C)O1 (stereo not given) + Cc1cnc(CNC(=O)c2c(=O)c3ccc(N4CCCN(C)CC4)nc3n3c2sc2ccccc23)cn1 as well?
active

Next molecule up: Nc1ccn(C2OC(CO)C(O)C2(F)F)c(=O)n1 (stereo not given) + Cc1[nH]c2ccc(F)cc2c1-c1nc2c3cccnc3c3ncccc3c2[nH]1
inactive

* * *

- Test system: 857933-349-R-J2-PDC complex spheroids, viability
- protocol summary: Anticancer human tumor 857933-349-R-J2-PDC cell line growth inhibition [GQUAD];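 further: spheroids exposed to compounds for one week before readout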;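 on viability, T/C: percent viability relative to vehicle DMSO wells taken as 100%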
- assay conditions: second compound 0.316 µM; first compound 0.316 µM; stronger effect = lower value
Just a reminder that ties go to Not satisfied: only viability, T/C strictly below 70% counts as Satisfied.

Examples with answers:
CC1COCCN1c1cc(C2(O)CC3CCC(C2)O3)c2cnn(-c3ccn[nH]3)c2n1 (stereo not given) + CN(C)c1ccc(Nc2c3ccc(NC(=O)CCN4CCCC4)cc3nc3cc(NC(=O)CCN4CCCC4)ccc23)cc1 : Not satisfied
Cc1cccc(N(C)C(=O)C2C(O)CCN2c2nc(C)cc(C(F)(F)F)c2C#N)c1 (stereo not given) + CN(C)c1ccc(Nc2c3ccc(NC(=O)CCN4CCCC4)cc3nc3cc(NC(=O)CCN4CCCC4)ccc23)cc1 : Not satisfied
CCCS(=O)(=O)Nc1ccc(F)c(C(=O)c2c[nH]c3ncc(-c4ccc(Cl)cc4)cc23)c1F + Cc1cnc(CNC(=O)c2c(=O)c3ccc(N4CCCN(C)CC4)nc3n3c2sc2ccccc23)cn1 : Satisfied
Cn1ncnc1[C@H]1c2n[nH]c(=O)c3cc(F)cc(c23)N[C@@H]1c1ccc(F)cc1 + CN(C)c1ccc(Nc2c3ccc(NC(=O)CCN4CCCC4)cc3nc3cc(NC(=O)CCN4CCCC4)ccc23)cc1 : Not satisfied

Now for a further compound.
Lab note: viability, T/C threshold 70%. Does this compound come in strictly under it? COc1cc(C2c3cc4c(cc3C(OC3OC5COC(C)OC5C(O)C3O)C3COC(=O)C23)OCO4)cc(OC)c1O (stereo not given) + CN(C)c1ccc(Nc2c3ccc(NC(=O)CCN4CCCC4)cc3nc3cc(NC(=O)CCN4CCCC4)ccc23)cc1
Not satisfied

* * *

- Test system: 857933-349-R-J2-PDC complex spheroids, viability
- protocol summary: Anticancer human tumor 857933-349-R-J2-PDC cell line growth inhibition [GQUAD];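 further: spheroids exposed to compounds for one week before readout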;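 on viability, T/C: percent viability relative to vehicle DMSO wells taken as 100%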
- assay conditions: second compound 0.0316 µM; first compound 0.316 µM; stronger effect = lower value
quantity: viability, T/C (%)
Please give a number only; it is taken to be in %.

C=CC(=O)N1CCN(c2nc(=O)n(-c3c(C)ccnc3C(C)C)c3nc(-c4c(O)cccc4F)c(F)cc23)C(C)C1 (stereo not given) + Cc1[nH]c2ccc(F)cc2c1-c1nc2c3cccnc3c3ncccc3c2[nH]1 : 96.7
C=CCn1c(=O)c2cnc(Nc3ccc(N4CCN(C)CC4)cc3)nc2n1-c1cccc(C(C)(C)O)n1 + CN(C)c1ccc(Nc2c3ccc(NC(=O)CCN4CCCC4)cc3nc3cc(NC(=O)CCN4CCCC4)ccc23)cc1 : 96.6
O=C(NO)c1cnc(N2CCN(S(=O)(=O)c3ccc4ccccc4c3)CC2)nc1 + Cc1[nH]c2ccc(F)cc2c1-c1nc2c3cccnc3c3ncccc3c2[nH]1 : 107

State its viability, T/C on 857933-349-R-J2-PDC complex spheroids, viability: C#Cc1c(F)ccc2cc(O)cc(-c3ncc4c(N5CC6CCC(C5)N6)nc(OCC56CCCN5CC(F)C6)nc4c3F)c12 (stereo not given) + CN(C)c1ccc(Nc2c3ccc(NC(=O)CCN4CCCC4)cc3nc3cc(NC(=O)CCN4CCCC4)ccc23)cc1
98.1

Field entry: CC[C@@]1(O)C(=O)OCc2c1cc1n(c2=O)Cc2cc3c(CN(C)C)c(O)ccc3nc2-1 + Cc1cnc(CNC(=O)c2c(=O)c3ccc(N4CCCN(C)CC4)nc3n3c2sc2ccccc23)cn1
32.2

* * *

# key: entry, value: viability, T/C
- Test system: 857933-349-R-J2-PDC complex spheroids, viability
- protocol summary: Anticancer human tumor 857933-349-R-J2-PDC cell line growth inhibition [GQUAD];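 further: spheroids exposed to compounds for one week before readout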;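 on viability, T/C: percent viability relative to vehicle DMSO wells taken as 100%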
- assay conditions: second compound 3.16 µM; first compound 0.1 µM; stronger effect = lower value
- From the text: DNA G-quadruplex Stabilizer Agents in Combinations in Complex Spheroids A high-throughput screen of multi-cell type tumor spheroids was designed to identify active combinations of DNA G-quadruplex stabilizer agents and targeted small molecules. […] Compounds. […] If the clinical Cmax for an agent had not been determined, the highest concentration tested was 10 microM. […]
Quick note: give the figure in %, leave out the unit.

CC(C)n1c(=O)n(C)c2cnc3cc(F)c(-c4ccc(OCCCN5CCCCC5)nc4)cc3c21 + CN(C)c1ccc(Nc2c3ccc(NC(=O)CCN4CCCC4)cc3nc3cc(NC(=O)CCN4CCCC4)ccc23)cc1 : 83.5
CC(C)n1c(=O)n(C)c2cnc3cc(F)c(-c4ccc(OCCCN5CCCCC5)nc4)cc3c21 + Cc1cnc(CNC(=O)c2c(=O)c3ccc(N4CCCN(C)CC4)nc3n3c2sc2ccccc23)cn1 : 3.85
O=C(c1cc(Cc2n[nH]c(=O)c3ccccc23)ccc1F)N1CCN(C(=O)C2CC2)CC1 + CN(C)c1ccc(Nc2c3ccc(NC(=O)CCN4CCCC4)cc3nc3cc(NC(=O)CCN4CCCC4)ccc23)cc1 : 82
COc1cccc2c1C(=O)c1c(O)c3c(c(O)c1C2=O)CC(O)(C(=O)CO)CC3OC1CC(N)C(O)C(C)O1 (stereo not given) + Cc1[nH]c2ccc(F)cc2c1-c1nc2c3cccnc3c3ncccc3c2[nH]1 : 65.7
O=C(c1cc(Cc2n[nH]c(=O)c3ccccc23)ccc1F)N1CCN(C(=O)C2CC2)CC1 + Cc1cnc(CNC(=O)c2c(=O)c3ccc(N4CCCN(C)CC4)nc3n3c2sc2ccccc23)cn1 : 2.92
C=CCn1c(=O)c2cnc(Nc3ccc(N4CCN(C)CC4)cc3)nc2n1-c1cccc(C(C)(C)O)n1 + CN(C)c1ccc(Nc2c3ccc(NC(=O)CCN4CCCC4)cc3nc3cc(NC(=O)CCN4CCCC4)ccc23)cc1 : 73.5

Look at this compound and give its reported viability, T/C. COc1ncnc(C2CC2)c1-c1ncc2cnn(Cc3ccc(-c4nc(C(F)(F)F)cn4C(C)C)cc3)c2n1 + CN(C)c1ccc(Nc2c3ccc(NC(=O)CCN4CCCC4)cc3nc3cc(NC(=O)CCN4CCCC4)ccc23)cc1
77.7

Please give the result for O=C(c1cc(Cc2n[nH]c(=O)c3ccccc23)ccc1F)N1CCN(C(=O)C2CC2)CC1 + Cc1[nH]c2ccc(F)cc2c1-c1nc2c3cccnc3c3ncccc3c2[nH]1 too.
105

Also, COc1cc(C2c3cc4c(cc3C(OC3OC5COC(C)OC5C(O)C3O)C3COC(=O)C23)OCO4)cc(OC)c1O (stereo not given) + CN(C)c1ccc(Nc2c3ccc(NC(=O)CCN4CCCC4)cc3nc3cc(NC(=O)CCN4CCCC4)ccc23)cc1 please.
81.2

Please give the result for CC(C)(O)C1CCC(Nc2ccc3ncc(-c4cccc(C(F)(F)F)c4)n3n2)CC1 (stereo not given) + Cc1cnc(CNC(=O)c2c(=O)c3ccc(N4CCCN(C)CC4)nc3n3c2sc2ccccc23)cn1 too.
1.85
